target: α5β1 integrin on K562 cells (UniProt P08648 42-1049; P05556 21-798); assay: cell-based or functional assay
Sequence (P08648 42-1049, chain 1 of 2): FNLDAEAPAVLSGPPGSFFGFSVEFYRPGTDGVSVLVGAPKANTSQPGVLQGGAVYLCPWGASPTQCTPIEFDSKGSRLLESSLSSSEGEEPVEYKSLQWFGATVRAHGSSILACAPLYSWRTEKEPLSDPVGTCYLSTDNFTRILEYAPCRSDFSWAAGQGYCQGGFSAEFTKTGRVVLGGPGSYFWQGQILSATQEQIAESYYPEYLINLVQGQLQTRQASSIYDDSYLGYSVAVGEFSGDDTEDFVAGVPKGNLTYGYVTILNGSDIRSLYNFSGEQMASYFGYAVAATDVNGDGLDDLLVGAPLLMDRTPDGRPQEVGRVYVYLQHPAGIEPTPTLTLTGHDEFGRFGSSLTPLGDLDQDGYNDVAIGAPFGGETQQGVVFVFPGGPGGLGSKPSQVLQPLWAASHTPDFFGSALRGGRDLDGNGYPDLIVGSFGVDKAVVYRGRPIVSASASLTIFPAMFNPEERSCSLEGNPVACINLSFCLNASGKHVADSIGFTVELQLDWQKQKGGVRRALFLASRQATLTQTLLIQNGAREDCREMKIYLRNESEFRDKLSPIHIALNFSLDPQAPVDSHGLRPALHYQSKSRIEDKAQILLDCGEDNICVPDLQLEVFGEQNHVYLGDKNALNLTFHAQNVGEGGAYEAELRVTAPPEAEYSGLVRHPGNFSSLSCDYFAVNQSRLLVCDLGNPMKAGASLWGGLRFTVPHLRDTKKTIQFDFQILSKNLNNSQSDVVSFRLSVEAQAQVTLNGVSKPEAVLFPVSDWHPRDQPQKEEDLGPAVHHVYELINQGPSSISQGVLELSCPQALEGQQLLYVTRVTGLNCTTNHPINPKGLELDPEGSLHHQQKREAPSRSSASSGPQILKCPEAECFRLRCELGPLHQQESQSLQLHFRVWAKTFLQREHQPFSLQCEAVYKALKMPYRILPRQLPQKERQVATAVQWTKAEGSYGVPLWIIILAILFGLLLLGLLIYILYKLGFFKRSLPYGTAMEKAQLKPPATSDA
Sequence (P05556 21-798, chain 2 of 2): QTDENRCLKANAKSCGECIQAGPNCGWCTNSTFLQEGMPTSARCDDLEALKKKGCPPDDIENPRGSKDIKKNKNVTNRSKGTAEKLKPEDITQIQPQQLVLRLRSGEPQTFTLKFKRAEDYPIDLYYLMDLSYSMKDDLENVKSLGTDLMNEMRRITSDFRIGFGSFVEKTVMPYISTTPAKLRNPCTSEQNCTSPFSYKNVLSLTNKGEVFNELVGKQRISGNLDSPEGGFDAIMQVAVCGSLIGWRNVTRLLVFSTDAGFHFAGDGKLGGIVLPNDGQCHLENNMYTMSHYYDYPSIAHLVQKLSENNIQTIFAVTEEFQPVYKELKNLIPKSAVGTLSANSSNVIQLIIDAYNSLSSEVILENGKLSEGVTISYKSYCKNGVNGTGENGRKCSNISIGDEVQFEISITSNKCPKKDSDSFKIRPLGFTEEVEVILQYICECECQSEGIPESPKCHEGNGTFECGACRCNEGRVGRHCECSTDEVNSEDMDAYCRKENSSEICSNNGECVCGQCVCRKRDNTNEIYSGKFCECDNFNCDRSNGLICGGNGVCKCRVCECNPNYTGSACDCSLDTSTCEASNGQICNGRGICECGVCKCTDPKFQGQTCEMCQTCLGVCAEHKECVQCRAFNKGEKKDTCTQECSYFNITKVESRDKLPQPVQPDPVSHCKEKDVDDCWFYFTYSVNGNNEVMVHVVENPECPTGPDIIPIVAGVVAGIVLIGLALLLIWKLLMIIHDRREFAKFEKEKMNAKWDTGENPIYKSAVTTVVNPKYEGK
property measured: % Inhibition of K562 adhesion to fibronectin (%)
# unit: % | format: bare number

Assign % Inhibition of K562 adhesion to fibronectin to the following record: sc 264 (antibody, V domains shown, lambda light chain) VH: QVQLQESGPGLVKPSQTLSLTCTVSGGSISSGGYYWSWIRQHPGKGLEWIGYIYYSGRTYNNPSLKSRVTISVDTSKNQFSLKLSSVTAADTAVYYCARVATGRGDYHFYAMDVWGQGTTVTVSS VL: SYELTQPSSVSVSPGQTARITCSGDVLAKKSARWFHQKPGQAPVLVIYKDSERPSGIPERFSGSSSGTTVTLTISGAQVEDEAAYYCYSAADNNLVFGGGTKLTVL
3
